Assay: Oral bioavailability in cynomolgus monkey
Assay type: ADME, organism-based, Macaca fascicularis
Conditions: in vivo
assay endpoint: bioavailability (%)
Answers are plain numbers, in %.

Lookup: GET /values?readout=bioavailability&item= "FC(F)(F)Oc1ccc(-c2ccc3nnc(C(F)(F)F)n3c2)cc1"
Found: 83

---

Assay: Aqueous solubility of the compound in PBS at pH 7.6
Assay type: physicochemical
assay endpoint: solubility (µM)
One number for each entry, in µM.

Lookup: GET /values?readout=solubility&item= "FC(F)(F)Oc1ccc(-c2ccc3nnc(C(F)(F)F)n3c2)cc1"
Found: 4.7

---

Assay: Stability in rat liver microsomes
Assay type: ADME
assay endpoint: half-life (h)
Give bare numbers, in h.

Lookup: GET /values?readout=half-life&item= "FC(F)(F)Oc1ccc(-c2ccc3nnc(C(F)(F)F)n3c2)cc1"
Found: 3.82

---

Assay: Stability in human liver microsomes
Format: ADME
assay endpoint: half-life

Lookup: GET /values?readout=half-life&item= "FC(F)(F)Oc1ccc(-c2ccc3nnc(C(F)(F)F)n3c2)cc1"
Found: > 6.58 h

---

Experiment: Clearance in iv dosed rat
Type: ADME, organism-based
Details: in vivo
assay endpoint: clearance
For clarity, give the value followed by its unit.

Lookup: GET /values?readout=clearance&item= "FC(F)(F)Oc1ccc(-c2ccc3nnc(C(F)(F)F)n3c2)cc1"
Found: 3.22 mL/min/kg

---

Experiment: Permeability from basolateral to apical side in human Caco2 cells at 1 uM
Format: ADME, cell-based
Details: Caco-2, read-out: permeability
assay endpoint: Papp B→A at 1 µM (×10⁻⁶ cm/s)
One number for each entry, in ×10⁻⁶ cm/s.

Lookup: GET /values?readout=Papp B→A at 1 µM&item= "FC(F)(F)Oc1ccc(-c2ccc3nnc(C(F)(F)F)n3c2)cc1"
Found: 44

---

Test: Cmax in po dosed cynomolgus monkey
Assay type: ADME, organism-based, Macaca fascicularis
Set-up: route oral
Details: in vivo
assay endpoint: Cmax (nM)
One number for each entry, in nM.

Lookup: GET /values?readout=Cmax&item= "FC(F)(F)Oc1ccc(-c2ccc3nnc(C(F)(F)F)n3c2)cc1"
Found: 1480

---

Test: Clearance in iv dosed cynomolgus monkey
Type: ADME, organism-based, Macaca fascicularis
Conditions: in vivo
assay endpoint: clearance (mL/min/kg)
One number for each entry, in mL/min/kg.

Lookup: GET /values?readout=clearance&item= "FC(F)(F)Oc1ccc(-c2ccc3nnc(C(F)(F)F)n3c2)cc1"
Found: 0.217

---

Test: Lipophilicity, logD of the compound
Format: physicochemical
Conditions: octanol/water
assay endpoint: logD
Answers are plain numbers.

Lookup: GET /values?readout=logD&item= "FC(F)(F)Oc1ccc(-c2ccc3nnc(C(F)(F)F)n3c2)cc1"
Found: 3.38

---

Assay: Permeability from basolateral to apical side in human Caco2 cells at 10 uM
Assay type: ADME, cell-based
Conditions: Caco-2, read-out: permeability
assay endpoint: Papp B→A at 10 µM (×10⁻⁶ cm/s)
Give bare numbers, in ×10⁻⁶ cm/s.

Lookup: GET /values?readout=Papp B→A at 10 µM&item= "FC(F)(F)Oc1ccc(-c2ccc3nnc(C(F)(F)F)n3c2)cc1"
Found: 35.2

---

Assay: AUC (0 to infinity) in po dosed rat
Assay type: ADME, organism-based
Set-up: time infinity, route oral
Details: in vivo
assay endpoint: AUC(0-inf) (µM·h)
Answers are plain numbers, in µM·h.

Lookup: GET /values?readout=AUC(0-inf)&item= "FC(F)(F)Oc1ccc(-c2ccc3nnc(C(F)(F)F)n3c2)cc1"
Found: 5.7

---

Assay: Cmax in po dosed rat
Assay type: ADME, organism-based
Design: route oral
Details: in vivo
assay endpoint: Cmax

Lookup: GET /values?readout=Cmax&item= "FC(F)(F)Oc1ccc(-c2ccc3nnc(C(F)(F)F)n3c2)cc1"
Found: 397 nM

---

Assay: Oral bioavailability in rat
Assay type: ADME, organism-based
Conditions: in vivo
assay endpoint: bioavailability
For clarity, give the value followed by its unit.

Lookup: GET /values?readout=bioavailability&item= "FC(F)(F)Oc1ccc(-c2ccc3nnc(C(F)(F)F)n3c2)cc1"
Found: 105%

---

Test: Tmax in po dosed rat
Type: ADME, organism-based
Conditions: in vivo
assay endpoint: Tmax (h)
Give bare numbers, in h.

Lookup: GET /values?readout=Tmax&item= "FC(F)(F)Oc1ccc(-c2ccc3nnc(C(F)(F)F)n3c2)cc1"
Found: 2.7

---

Test: Volume of distribution at steady state in iv dosed rat
Assay type: ADME, organism-based
Conditions: in vivo, read-out: Vdss
assay endpoint: Vd (L)
Numbers only, in L.

Lookup: GET /values?readout=Vd&item= "FC(F)(F)Oc1ccc(-c2ccc3nnc(C(F)(F)F)n3c2)cc1"
Found: 3.4

---

Assay: Permeability from apical to basolateral side in human Caco2 cells at 1 uM
Type: ADME, cell-based
Settings: Caco-2, read-out: permeability
assay endpoint: Papp A→B at 1 µM (×10⁻⁶ cm/s)
Give bare numbers, in ×10⁻⁶ cm/s.

Lookup: GET /values?readout=Papp A→B at 1 µM&item= "FC(F)(F)Oc1ccc(-c2ccc3nnc(C(F)(F)F)n3c2)cc1"
Found: 41.2
